# TGT: recombinant PfUDG (Plasmodium falciparum, UniProt Q8ILU6, P157T)
# Sequence (Q8ILU6 whole entry P157T): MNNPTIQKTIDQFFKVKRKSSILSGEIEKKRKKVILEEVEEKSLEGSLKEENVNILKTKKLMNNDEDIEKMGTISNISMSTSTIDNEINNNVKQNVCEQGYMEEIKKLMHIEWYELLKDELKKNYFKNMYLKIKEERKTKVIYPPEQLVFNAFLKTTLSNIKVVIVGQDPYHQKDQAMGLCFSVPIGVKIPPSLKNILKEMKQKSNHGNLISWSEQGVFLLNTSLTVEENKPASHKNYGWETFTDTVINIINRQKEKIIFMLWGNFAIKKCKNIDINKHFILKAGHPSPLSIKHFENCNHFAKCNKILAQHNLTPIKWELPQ
# TEST DESCRIPTION: Inhibition of recombinant PfUDG activity (32P-labelled oligo-U glycosylase assay)
pIC50: −log10 of the molar value.
READOUT KIND: pIC50

Answered cases to consult:
CCc1cc(Nc2cc(=O)n(CCCCO)c(=O)[nH]2)ccc1C = < 3.40
O=c1cc(NNc2ccccc2)[nH]c(=O)[nH]1 [compound 2, 6-(Phenylhydrazino)uracil] = 4.11
Cc1ccc(Nc2cc(=O)[nH]c(=O)[nH]2)cc1 = < 3.40
CCCCCc1ccc(Nc2cc(=O)[nH]c(=O)[nH]2)cc1 = < 3.40
CCCCc1ccc(Nc2cc(=O)[nH]c(=O)[nH]2)cc1 = < 3.40

Identify pIC50 associated with the molecule `O=c1cc[nH]c(=O)[nH]1` < 3.40

Identify pIC50 associated with the molecule `CCCc1ccc(Nc2cc(=O)[nH]c(=O)[nH]2)cc1` < 3.40

Identify pIC50 associated with the molecule `CCCCCCCc1ccc(Nc2cc(=O)[nH]c(=O)[nH]2)cc1` < 3.40

* * *

# TEST DESCRIPTION: Cytotoxicity test, MTT colorimetric assay
# Type: cell-based
# CONDITION PARAMETERS: human, HepG2 cells
READOUT KIND: pIC50
By convention, pIC50 is the negative base-10 log of a molar concentration.

Identify pIC50 associated with the compound O=c1cc(NNc2ccccc2)[nH]c(=O)[nH]1 [compound 2, 6-(Phenylhydrazino)uracil] 4.56

* * *

# Test system: P. falciparum K1 strain
# TEST DESCRIPTION: Inhibition of parasite growth in vitro, SYBR Green I based assay
# Assay type: cell-based
# CONDITION PARAMETERS: Plasmodium falciparum, synchronized ring stage K1 strain
READOUT KIND: IC50 (µM)
Record the value in µM, omitting the unit from your answer.

Answered cases to consult:
Cc1ccc(Nc2cc(=O)[nH]c(=O)[nH]2)cc1 = 7.1
O=c1cc[nH]c(=O)[nH]1 = 10

Identify IC50 associated with the molecule `CC(C)Cc1ccc(Nc2cc(=O)[nH]c(=O)[nH]2)cc1` 16.5

* * *

Each record here notes measured IC50.
# Tested on: P. falciparum K1 strain
# TEST DESCRIPTION: Inhibition of parasite growth in vitro, SYBR Green I based assay
# Type: cell-based
# CONDITION PARAMETERS: Plasmodium falciparum, synchronized ring stage K1 strain
Record the value in µM, omitting the unit from your answer.

Answered cases to consult:
CCc1cc(Nc2cc(=O)n(CCCCO)c(=O)[nH]2)ccc1C = 10.2
CC(C)c1ccc(Nc2cc(O)nc(O)n2)cc1 = 12.6
CCCCCCCc1ccc(Nc2cc(=O)[nH]c(=O)[nH]2)cc1 = 5
CC(C)CCc1ccc(Nc2cc(=O)[nH]c(=O)[nH]2)cc1 = 11
O=c1cc(NNc2ccccc2)[nH]c(=O)[nH]1 [compound 2, 6-(Phenylhydrazino)uracil] = 12.8

Identify IC50 associated with the compound `CCCCCc1ccc(Nc2cc(=O)[nH]c(=O)[nH]2)cc1` 10.5

Identify IC50 associated with the compound `CCCCc1ccc(Nc2cc(=O)[nH]c(=O)[nH]2)cc1` 10

Identify IC50 associated with the compound `CCCc1ccc(Nc2cc(=O)[nH]c(=O)[nH]2)cc1` 7.9
